Data provenance: ChEMBL document CHEMBL1123109

System: Coxsackievirus B4
Test: Inhibition of Coxsackie B4 virus induced cytopathicity in HeLa cells.
Format: functional
Settings: Enterovirus B
REPORTED_PROPERTY: MIC

- COMPOUND: "CC(C)(C)OC(=O)C(O)Cn1cnc2c(N)ncnc21 (stereo unspecified)"
  REPORTED_PROPERTY: "MIC"
  MEAS_VALUE: "> 400 µg/mL"
- COMPOUND: "CCC(C)OC(=O)C(O)Cn1cnc2c(N)ncnc21 (stereo unspecified)"
  REPORTED_PROPERTY: "MIC"
  MEAS_VALUE: "> 400 µg/mL"
- COMPOUND: "CCOC(=O)C(O)Cn1cnc2c(N)ncnc21 (stereo unspecified)"
  REPORTED_PROPERTY: "MIC"
  MEAS_VALUE: "> 400 µg/mL"
- COMPOUND: "CCCCOC(=O)C(O)Cn1cnc2c(N)ncnc21 (stereo unspecified)"
  REPORTED_PROPERTY: "MIC"
  MEAS_VALUE: "> 400 µg/mL"
- COMPOUND: "Nc1ncnc2c1ncn2CC(O)C(=O)OCCO (stereo unspecified)"
  REPORTED_PROPERTY: "MIC"
  MEAS_VALUE: "> 400 µg/mL"
- COMPOUND: "COC(=O)C(O)Cn1cnc2c(N)ncnc21 (stereo unspecified)"
  REPORTED_PROPERTY: "MIC"
  MEAS_VALUE: "> 400 µg/mL"
- COMPOUND: "Nc1ncnc2c1ncn2CC(O)C(=O)OCc1ccco1 (stereo unspecified)"
  REPORTED_PROPERTY: "MIC"
  MEAS_VALUE: "> 40 µg/mL"
- COMPOUND: "CCCCCOC(=O)C(O)Cn1cnc2c(N)ncnc21 (stereo unspecified)"
  REPORTED_PROPERTY: "MIC"
  MEAS_VALUE: "> 400 µg/mL"
- COMPOUND: "CC(C)COC(=O)C(O)Cn1cnc2c(N)ncnc21 (stereo unspecified)"
  REPORTED_PROPERTY: "MIC"
  MEAS_VALUE: "> 400 µg/mL"
- COMPOUND: "Nc1ncnc2c1ncn2CC(O)C(=O)OC1CCCCC1 (stereo unspecified)"
  REPORTED_PROPERTY: "MIC"
  MEAS_VALUE: "> 100 µg/mL"
- COMPOUND: "COCCOC(=O)C(O)Cn1cnc2c(N)ncnc21 (stereo unspecified)"
  REPORTED_PROPERTY: "MIC"
  MEAS_VALUE: "> 400 µg/mL"
- COMPOUND: "Nc1ncnc2c1ncn2C[C@H](O)CO [(S)-DHPA]"
  REPORTED_PROPERTY: "MIC"
  MEAS_VALUE: "> 400 µg/mL"
- COMPOUND: "CC(C)OC(=O)C(O)Cn1cnc2c(N)ncnc21 (stereo unspecified)"
  REPORTED_PROPERTY: "MIC"
  MEAS_VALUE: "> 400 µg/mL"
- COMPOUND: "CC(C)CCOC(=O)C(O)Cn1cnc2c(N)ncnc21 (stereo unspecified)"
  REPORTED_PROPERTY: "MIC"
  MEAS_VALUE: "> 400 µg/mL"
- COMPOUND: "CCCCCCCCOC(=O)C(O)Cn1cnc2c(N)ncnc21 (stereo unspecified)"
  REPORTED_PROPERTY: "MIC"
  MEAS_VALUE: "> 100 µg/mL"
- COMPOUND: "CCCOC(=O)C(O)Cn1cnc2c(N)ncnc21 (stereo unspecified)"
  REPORTED_PROPERTY: "MIC"
  MEAS_VALUE: "> 400 µg/mL"
